This collection of values is drawn from patent US11649255B2.

biological target: recombinant human HPK1 (Homo sapiens (Human), UniProt Q92918); assay: HPK1 kinase assay (ADP-Glo); details: 25 μM ATP, MBP substrate
Sequence (Q92918 whole entry): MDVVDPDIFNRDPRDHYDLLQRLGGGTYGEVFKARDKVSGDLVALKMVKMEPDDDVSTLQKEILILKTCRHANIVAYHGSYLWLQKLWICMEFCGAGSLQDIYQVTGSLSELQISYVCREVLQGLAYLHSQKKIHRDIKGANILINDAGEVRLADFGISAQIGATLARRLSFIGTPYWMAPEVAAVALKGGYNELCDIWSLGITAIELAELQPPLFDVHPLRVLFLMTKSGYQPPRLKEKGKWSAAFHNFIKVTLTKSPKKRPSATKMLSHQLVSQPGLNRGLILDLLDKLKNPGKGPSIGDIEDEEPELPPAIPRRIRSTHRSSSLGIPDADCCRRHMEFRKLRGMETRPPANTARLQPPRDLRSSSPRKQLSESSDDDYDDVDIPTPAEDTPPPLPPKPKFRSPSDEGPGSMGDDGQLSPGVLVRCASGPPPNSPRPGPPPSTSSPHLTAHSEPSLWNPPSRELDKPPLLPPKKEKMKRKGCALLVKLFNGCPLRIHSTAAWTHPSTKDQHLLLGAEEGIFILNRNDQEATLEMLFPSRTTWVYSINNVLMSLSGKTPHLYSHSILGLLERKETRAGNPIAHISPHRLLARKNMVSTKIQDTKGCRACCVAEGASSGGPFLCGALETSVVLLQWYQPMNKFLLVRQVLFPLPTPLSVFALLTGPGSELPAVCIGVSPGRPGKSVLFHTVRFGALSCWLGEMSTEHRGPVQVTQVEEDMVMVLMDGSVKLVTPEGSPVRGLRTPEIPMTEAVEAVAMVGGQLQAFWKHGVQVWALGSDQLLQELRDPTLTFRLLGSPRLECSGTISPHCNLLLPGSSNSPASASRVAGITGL
pIC50: −log10 of the molar value.
measurementName: pIC50

Recorded results for 5 compounds are shown here.
compound="O=C(Nc1cc2cc(-c3c(Cl)c(F)c(F)c4[nH]ncc34)ccn2n1)[C@@H]1C[C@@H]1F [Example 536]" targetsystem="recombinant human HPK1 (Homo sapiens (Human), UniProt Q92918)" measurementname=pIC50 assayresult="> 7.00"
compound="CSc1c(F)cc2[nH]ncc2c1-c1ccn2nc(NC(=O)[C@@H]3C[C@H]3F)cc2c1 [Example 572]" targetsystem="recombinant human HPK1 (Homo sapiens (Human), UniProt Q92918)" measurementname=pIC50 assayresult="> 7.00"
compound="C[C@H]1[C@H](C(=O)Nc2cc3cc(-c4c(Cl)c(F)c(N(C)C)c5[nH]ncc45)ccn3n2)[C@H]1c1cnn(C)c1 [Example 646]" targetsystem="recombinant human HPK1 (Homo sapiens (Human), UniProt Q92918)" measurementname=pIC50 assayresult="> 7.00"
compound="C=Cc1cc(C)c(-c2ccn3nc(NC(=O)[C@@H]4C[C@@H]4F)cc3c2)c2cn[nH]c12 [Example 483]" targetsystem="recombinant human HPK1 (Homo sapiens (Human), UniProt Q92918)" measurementname=pIC50 assayresult="> 7.00"
compound="CSc1c(F)c(C)c(-c2ccc3nc(NC(=O)[C@@H]4C[C@@H]4F)sc3c2)c2cn[nH]c12 [Example 64]" targetsystem="recombinant human HPK1 (Homo sapiens (Human), UniProt Q92918)" measurementname=pIC50 assayresult="> 7.00"

Which pIC50 value is on record for CCOc1cc(C)c(-c2ccc3nc(NC(=O)[C@@H]4C[C@@H]4F)sc3c2)c2cn[nH]c12 [Example 101] ?
> 7.00

And then C=Cc1n[nH]c2cc(F)c(C)c(-c3ccc4nc(NC(=O)[C@@H]5C[C@@H]5F)sc4c3)c12 [Example 52] , what is it?
< 6.00

Similarly, CC(C)Nc1c(F)c(Cl)c(-c2cc(N)c3nc(NC(=O)[C@@H]4C[C@@H]4F)cn3c2)c2cn[nH]c12 [Example 403] ?
< 6.00

What about this compound? CCc1c(F)c(C(F)(F)F)c2[nH]ncc2c1-c1ccc2nc(NC(=O)[C@@H]3C[C@@H]3F)cn2c1 [Example 339]
> 7.00
